FYI, the data here is from ChEMBL document CHEMBL5052856.

system: Apolipoprotein L1 (Homo sapiens, UniProt O14791)
experiment.description: Inhibition of APOL1 G1 variant in human HEK293-T-REx cells measured by Thallium assay
Each entry below carries its recorded IC50.
recorded.metric: IC50 (nM)

| compound | quantity.unit | measurement.qualifier | assay.result |
| --- | --- | --- | --- |
| O=C(NC(CO)C1CC1)[C@H]1C[C@H](c2c(-c3ccc(F)cc3)[nH]c3c(F)cc(F)cc32)C1 (some centres undefined) | nM | = | 0.25 |
| CCNC(=O)[C@@H]1CCCN1C(=O)[C@H]1C[C@H](c2c(-c3ccc(F)cc3)[nH]c3c(F)cc(F)cc32)C1 | nM | > | 1000 |
| NC(=O)[C@H]1C[C@H](c2c(-c3ccc(F)cc3)[nH]c3c(F)cc(F)cc32)C1 | nM | = | 0.25 |
| CC1(CO)CCN1C(=O)[C@H]1C[C@H](c2c(-c3ccc(F)cc3)[nH]c3c(F)cc(F)cc32)C1 (some centres undefined) | nM | = | 0.25 |
